// provenance: patent US20260028391A1

Molecular target: T1, DS-Cav1 RSV F (respiratory syncytial virus)
T1 construct: also called DC-VCav1
Assay: ELISA on DS-Cav1 RSV F
recorded-endpoint: EC50 (µg/mL)
Reply numerically in µg/mL, unit not repeated.

// known answers, use as guide
INSERT INTO assay_data (binder, recorded_endpoint, obs_value) VALUES
  ('MPH12 VH-FRGL / MPH12 VL-FRGL (antibody, V domains shown, MPH12 variant; VH and VL only) VH: QVQLVESGGGLVKPGGSLRLSCAASGFTFSGFYMKWIRQAPGKGLEWVSSISASGSYTNYADSVEGRFTISRDNAKNSLYLQMNSLRAEDTAVYYCARGDSYCGASACHGEFFHKWGQGTLVTVSS VL: QSVLTQPPSVSGAPGQRVTISCTGSDSNIGADFDVHWYQQLPGTAPKLLIYGNINRPSGVPDRFSGSKSGTSASLAITGLQAEDEADYYCQSYDRSLHYVFGTGTKVTVL', 'EC50', 0.0305),
  ('MPH12 VH-D62E / MPH12 VL-D25S (antibody, V domains shown, MPH12 variant; VH and VL only) VH: QVQLVESGGGLVKPGGSLRLSCVASGFTFSGFYMKWIRQAPGKGLEWVSSISASGSYTNYAESVEGRFTVSRDNAKNSLFLLMSSLRAEDTAVYYCARGDSYCGASACHGEFFHKWGQGTLVTVSS VL: QSVLTQPPSVSGAPGQRVTISCTGSSSNIGADFDVHWYQQLPGTAPKLLIYGNINRPSGVPDRFSGSRSGTSAFLAITRLQAEDEADYYCQSYDRSLHYVFGAGTKVTVL', 'EC50', 0.0236);

Here is the next item to consider.
Bench note: what EC50 did MPH12 VH-FRGL-D62E / MPH12 VL-FRGL (antibody, V domains shown, MPH12 variant; VH and VL only) VH: QVQLVESGGGLVKPGGSLRLSCAASGFTFSGFYMKWIRQAPGKGLEWVSSISASGSYTNYAESVEGRFTISRDNAKNSLYLQMNSLRAEDTAVYYCARGDSYCGASACHGEFFHKWGQGTLVTVSS VL: QSVLTQPPSVSGAPGQRVTISCTGSDSNIGADFDVHWYQQLPGTAPKLLIYGNINRPSGVPDRFSGSKSGTSASLAITGLQAEDEADYYCQSYDRSLHYVFGTGTKVTVL show?
0.0349
